- Tested on: Bacillus subtilis DB104 (SP-AmyQ fusion secretion)
- Assay protocol: AmyQ secretion efficiency, weighted average sort bin (1 = best secretion, 10 = worst) (bin number (weighted average, 1-10)); higher = lower secretion efficiency
Attribute measured: AmyQ secretion efficiency
Provide a numeric answer; units are not to be included.

Answered cases to consult:
- Item sequence: "MRKKLKWLSFRRRRIILLFLFKYQFSNNDS"
  AmyQ secretion efficiency: 7.16
- Item sequence: "MNFKKTVVSALSISALALSVSGVASAHSD"
  AmyQ secretion efficiency: 2.93
- Item sequence: "MKKLLAAGIIGLLTVRKKSPSFAAEK"
  AmyQ secretion efficiency: 8.11
- Item sequence: "MKKKLAAGLTASAIVGTTLVVTPAEAKRK"
  AmyQ secretion efficiency: 6.02
- Item sequence: "MKLRKVLTGSVLSLGLLEKDSPAFATSP"
  AmyQ secretion efficiency: 6.38

I'd like to know its AmyQ secretion efficiency. The sequence in question is MKSKGSIMACLILFSFTITTFINTETISFFSN
6.76

Which measured AmyQ secretion efficiency value corresponds to MKKTIMSFVAVAALSTGAHASAKEI ?
2.46

Look up AmyQ secretion efficiency for this sequence: MKKELRRKKKRCLSLSPLVSTNEVFAATT
6.21

###

The following sequences are shown together with reported AmyQ secretion efficiency values.
- Tested on: Bacillus subtilis DB104 (SP-AmyQ fusion secretion)
- Assay protocol: AmyQ secretion efficiency, weighted average sort bin (1 = best secretion, 10 = worst) (bin number (weighted average, 1-10)); higher = lower secretion efficiency
Number only, no unit.

Some solved entries appear below for comparison.
- Item sequence: "MKKVVLVLSIAGIGGFSVHAASS"
  AmyQ secretion efficiency: 6.91
- Item sequence: "MIKRFSLIMMTGLLFGLTSPAFAAEK"
  AmyQ secretion efficiency: 4.15

Recall the recorded AmyQ secretion efficiency for MAIIIAIIAAVIVIAALITFNVMNASPG with Bacillus subtilis DB104 (SP-AmyQ fusion secretion) and state it.
6.23

Request body: readout AmyQ secretion efficiency, system Bacillus subtilis DB104 (SP-AmyQ fusion secretion), query MLCVMMLLFMAIASFPVSAQAKDQ . Return the value.
5.48

Quick check: AmyQ secretion efficiency on Bacillus subtilis DB104 (SP-AmyQ fusion secretion), item MKKRRIVSILFMFGLVMGFSQFQPSTVFAADK ?
2.46

API: value(readout=AmyQ secretion efficiency, system=Bacillus subtilis DB104 (SP-AmyQ fusion secretion)) for record MKKMLGKLLITAGILVFFAVVVKDVFAAGL
7.15

###

- System: Bacillus subtilis DB104 (SP-AmyQ fusion secretion)
- Assay protocol: AmyQ secretion efficiency, weighted average sort bin (1 = best secretion, 10 = worst) (bin number (weighted average, 1-10)); higher = lower secretion efficiency
Attribute measured: AmyQ secretion efficiency

Sample records with AmyQ secretion efficiency:
- Item sequence: "MKKKQVMGYTTAAAGLGLTALHSAPAAKAAPL"
  AmyQ secretion efficiency: 7.28
- Item sequence: "MKKWIYTVLVLSIAGIGGFSVHAASS"
  AmyQ secretion efficiency: 6.39
- Item sequence: "MIKLVLCVSILAVILSGVALTQLS"
  AmyQ secretion efficiency: 7.36
- Item sequence: "MKSKWMRQKRLVAVGFSFTQVMVHAGET"
  AmyQ secretion efficiency: 8.54
- Item sequence: "MLKKKWMVRRRKGCLAAGGFSYNAFATEN"
  AmyQ secretion efficiency: 7.58

Which AmyQ secretion efficiency value is on record for MKRSISIFITCLLITLLTMGGMIASPASAEDE ?
2.08

May I ask what AmyQ secretion efficiency has been recorded for MRSYIKVLTMCFLGLILFVPTALLDNS ?
5.28

Param item = MKLAKRVSALTPSTTLAITAKKKEL ; retrieve measured AmyQ secretion efficiency.
7.78

Which AmyQ secretion efficiency is reported for this sequence? MTMLRKIIGWILLLCIIPLFAFTVICSGKEV
7.14

Name the recorded AmyQ secretion efficiency for MKWMCSICCAAVLLAGGASFFGTFGPGTTAQAEAV .
4.06

###

- Tested on: Bacillus subtilis DB104 (SP-AmyQ fusion secretion)
- Assay protocol: AmyQ secretion efficiency, weighted average sort bin (1 = best secretion, 10 = worst) (bin number (weighted average, 1-10)); higher = lower secretion efficiency
Quick list: AmyQ secretion efficiency per entry.
Answer with the value's number alone.

Use the examples below as a reference point.
- Item sequence: "MNKKYFVLIVCIIFTSALFPTFSSITAAQG"
  Tgt: "Bacillus subtilis DB104 (SP-AmyQ fusion secretion)"
  AmyQ secretion efficiency: 1.16
- Item sequence: "MRFTKVVGFLSVLGLAAVFPLTTQAEKA"
  Tgt: "Bacillus subtilis DB104 (SP-AmyQ fusion secretion)"
  AmyQ secretion efficiency: 4.74
- Item sequence: "MKVPKTMLLSTAAGLLTATSVSAHYV"
  Tgt: "Bacillus subtilis DB104 (SP-AmyQ fusion secretion)"
  AmyQ secretion efficiency: 6.58

# input sequence: MRPVFPLILSAVLFLSCFFGARQTEVSASKR ; wanted: its AmyQ secretion efficiency
2.58

Form field: reported AmyQ secretion efficiency of MTKKAWFLPLVCVLLISGWLAPAASCSAQTT
3.03

For the sequence shown here, MQLGKKLSVAVAASFMSLSISLPGVQAAEG , give the reported AmyQ secretion efficiency.
2.25

Endpoint output: AmyQ secretion efficiency of MLKKIALTLCPAIVGSLLFFTAPFSAHVS . Value?
5.46

Find the recorded AmyQ secretion efficiency belonging to MRKKKRRVLLLLVTGLFMSLFAVTATASAQTG and report it.
1.06

Query (sequence): MLCVMMLLFSAIASFPVSTQAKDQ ; field requested: AmyQ secretion efficiency
5.3

###

- Tested on: Bacillus subtilis DB104 (SP-AmyQ fusion secretion)
- Assay protocol: AmyQ secretion efficiency, weighted average sort bin (1 = best secretion, 10 = worst) (bin number (weighted average, 1-10)); higher = lower secretion efficiency
Listed here: items and their measured AmyQ secretion efficiency.

Below, each entry is followed by its recorded AmyQ secretion efficiency result.
- Item sequence: "MKKKLAAGLTASAIVGTTLVVTPAETATI"
  Tgt: "Bacillus subtilis DB104 (SP-AmyQ fusion secretion)"
  AmyQ secretion efficiency: 5.92
- Item sequence: "MRKNRILALFVLSLGLLKRKRKKVSAASK"
  Tgt: "Bacillus subtilis DB104 (SP-AmyQ fusion secretion)"
  AmyQ secretion efficiency: 6.69
- Item sequence: "MKRITINIITMFIAAAVIEEDEEAEAAEK"
  Tgt: "Bacillus subtilis DB104 (SP-AmyQ fusion secretion)"
  AmyQ secretion efficiency: 5.79

As a next step, examine the sequence that follows.
If you can, please state the reported AmyQ secretion efficiency value of MGMKKKLRKKRASAALGLALVGGGTWAAFN .
5.51

###

- Test system: Bacillus subtilis DB104 (SP-AmyQ fusion secretion)
- Assay protocol: AmyQ secretion efficiency, weighted average sort bin (1 = best secretion, 10 = worst) (bin number (weighted average, 1-10)); higher = lower secretion efficiency
Would you mind sorting the entries by AmyQ secretion efficiency according to these classes? class 0 = under 4, class 1 = from 4 up to 6, class 2 = 6 and over

Please review the entries below; each comes with its answer.
- Item sequence: "MKSKGSIMACLILFSFTITTFINTETCSAFSN"
  Discrete label: "class 1"
- Item sequence: "MKKMLGKSRYGAGILVFFAVVVKDVFAAGL"
  Discrete label: "class 1"
- Item sequence: "MNKKYFVLIVCIIFTSALFPTFSSVTTAQG"
  Discrete label: "class 0"
- Item sequence: "MLTKRLLTIYIMLLGLIAWFPGAAQAAED"
  Discrete label: "class 0"
- Item sequence: "MKKIVSILFMFGLVMRRKRKKPSTVFAADK"
  Discrete label: "class 2"
- Item sequence: "MRMLWRSLALCGLALTLAPCAQADDD"
  Discrete label: "class 1"
- Item sequence: "MKKKQVMLALTAAAGLGLTALHSAPAAKAADD"
  Discrete label: "class 0"
- Item sequence: "MKKVLMAFIICLSLILSVLAAPPSGDKAESV"
  Discrete label: "class 1"

Each sequence maps to one class by AmyQ secretion efficiency. Which class for MKLSVKIKKKRRKAAAAMTAKMYATAKGN ?
class 2

Pick a category. Item: MSKVLMAFIICLSLILSVLAAPPSGAKAESV
class 0

Just checking, what class would you give MKKVVSALSISALALSVSGVASAHEI here?
class 0

Lab note: sort MKLSVKIAGVLTVAAAAMEDDMYATAKGN into the matching AmyQ secretion efficiency band.
class 2

Assign a bin to MTMLRKIIGWILLLCIIPLFAFTVIISGKEV
class 1

###

- Test system: Bacillus subtilis DB104 (SP-AmyQ fusion secretion)
- Assay protocol: AmyQ secretion efficiency, weighted average sort bin (1 = best secretion, 10 = worst) (bin number (weighted average, 1-10)); higher = lower secretion efficiency
Attribute measured: AmyQ secretion efficiency
Lab note: jot the number down without any unit.

Here are 2 sequences together with their reported answers.
- Item sequence: "MKRIRIPMTLALGAALTIAPLSFASTEEN"
  AmyQ secretion efficiency: 8.25
- Item sequence: "MKKLVLCVSILAVILKRKRKKALTQLS"
  AmyQ secretion efficiency: 6.12

Note: attention shifts to another entry.
Recorded AmyQ secretion efficiency for MRHKSITFILAVVVIIIIGNMIGGGGGSEATSK , please?
6.79
